test system: CAKI-1 renal; test: NCI-60 one-dose screen, 48 h (100 = growth as untreated, 0 = no growth, -100 = all killed); conditions: 10 µM unless noted
About 83,000 compounds went through this panel and 20% of them were active in at least one assay; those are over-represented in the sample as a whole.
endpoint-label: growth (%)
Supply the numeric figure in %, leaving out any unit text.

compound=Cc1nc(Sc2nc3ccc([N+](=O)[O-])cc3s2)sc1C unit_abbrev=% result_number=28.5

Form: item Oc1ccc(Nc2ccc3ccccc3c2)cc1 ; test system CAKI-1 renal; growth: 8.98

Test item CCC1C[N+]2=C(c3cc(OC)c(OC)cc3CC2)c2c1cc1n2CCc2cc(OC)c(OC)cc2-1 (stereo unspecified) ; CAKI-1 renal; reported growth was 87

growth of CC1(C)OC2C(COC(c3ccccc3)(c3ccccc3)c3ccccc3)OC(c3c[nH]c4c(N)ncnc34)C2O1 (stereo unspecified) , assay on CAKI-1 renal, is 56.6

----------
growth overview
Tested on: HOP-62 NSCLC
Experiment: NCI-60 one-dose screen, 48 h (100 = growth as untreated, 0 = no growth, -100 = all killed)
Conditions: 10 µM unless noted
Experimental: Growth inhibition of the HOP-62 human Non-Small Cell Lung tumor cell line is measured as a screen for anti-cancer activity. Cells are grown in 96 well plates and exposed to the test compound for 48 hours. Compounds are tested at a single concentration, which is 10^-5 M for most compounds. The reported endpoint is percent growth (GI% or GIPRCNT), where numbers from 0 - 100% represent growth inhibition, and numbers from -100% - 0 represent cell death. […]
About 83,000 compounds went through this panel and 20% of them were active in at least one assay; those are over-represented in the sample as a whole.
The response must be a number in % with no trailing unit.

Worked set:
chemical_smiles=CCCCOS(=O)(=O)c1ccccc1 system_under_test="HOP-62 NSCLC" result_number=96.9
chemical_smiles=CC(=O)Nc1ccc(C(=O)CCl)cc1 system_under_test="HOP-62 NSCLC" result_number=94
chemical_smiles=CC(=O)c1ccc2c(c1)CCc1ccccc1-2 system_under_test="HOP-62 NSCLC" result_number=88.5
chemical_smiles=O=C1C=CC(O)=CC1=P(c1ccccc1)(c1ccccc1)c1ccccc1 system_under_test="HOP-62 NSCLC" result_number=99.7
chemical_smiles=Cc1cc2nc(CC(=O)c3ccncc3)c(=O)[nH]c2cc1C system_under_test="HOP-62 NSCLC" result_number=95
chemical_smiles=Cc1cc(N/N=C/c2ccccn2)nc2ccccc12 system_under_test="HOP-62 NSCLC" result_number=0.2

Shifting focus to the compound that follows.
Entry [Cl-].[Rh+3].c1ccc(-c2ccnc3c2ccc2c(-c4ccccc4)ccnc23)cc1.c1ccc(-c2ccnc3c2ccc2c(-c4ccccc4)ccnc23)cc1.c1ccc(-c2ccnc3c2ccc2c(-c4ccccc4)ccnc23)cc1 , growth reported as 92

----------
test system: HCT-116 colon; assay: NCI-60 one-dose screen, 48 h (100 = growth as untreated, 0 = no growth, -100 = all killed); settings: 10 µM unless noted
Compounds without any hit were thinned out: in the full panel of roughly 83,000, 20% have a hit.
Decision: growth beneath 20% gives T; growth meeting or exceeding 20% gives F.

molecule="CC1(C)OCC(COC(c2ccccc2)(c2ccccc2)c2ccccc2)O1 (stereo not given)" system_under_test="HCT-116 colon" classification=F
molecule=O=C(c1ccccc1)c1ccc(O)c2ncccc12 system_under_test="HCT-116 colon" classification=T
molecule="CCCCCC/C=C1\\CCC(CN2CCCC2)C1=O (stereo not given)" system_under_test="HCT-116 colon" classification=F

Input line: Determine whether this molecule shows growth lower than 20% (ties excluded): Cc1onc(-c2ccccc2)c1C(=O)N/N=C/c1cc(Cl)cc(Cl)c1O
Output line: F

Input line: # TODO verify growth < 20% strictly for this molecule: CCOc1ccc(C(CN2CCOCC2)C(C)=O)cc1OC (stereo not given)
Output line: F

Input line: Given the entry CCc1cnc2ccccc2c1/C=C/c1ccc(N(C)C)cc1 , would its reported growth be below 20%?
Output line: F

Input line: Identify whether the molecule O=[N+]([O-])c1ccc(C(Br)c2ccc([N+](=O)[O-])cc2)cc1 records growth below 20%.
Output line: F

Input line: Please check: growth for CCCCCCCCCCCCCCCCSC(=NCC)NCC , strictly under 20% or not?
Output line: T

Input line: Quick check: growth of Oc1c(C(Nc2ccccc2)c2ccccc2)ccc2cccnc12 (stereo not given) under 20%?
Output line: T

Input line: # check: growth < 20% for [Cl-].[Rh+3].c1ccc(-c2ccnc3c2ccc2c(-c4ccccc4)ccnc23)cc1.c1ccc(-c2ccnc3c2ccc2c(-c4ccccc4)ccnc23)cc1.c1ccc(-c2ccnc3c2ccc2c(-c4ccccc4)ccnc23)cc1
Output line: F

----------
Test system: COLO 205 colon
Assay: NCI-60 one-dose screen, 48 h (100 = growth as untreated, 0 = no growth, -100 = all killed)
Details: 10 µM unless noted
Protocol: Cells are grown in 96 well plates and exposed to the test compound for 48 hours. Compounds are tested at a single concentration, which is 10^-5 M for most compounds. The reported endpoint is percent growth (GI% or GIPRCNT), where numbers from 0 - 100% represent growth inhibition, and numbers from -100% - 0 represent cell death. For example, a value of 40 represents 60% growth inhibition. A value of 0 means no net growth occurred over the course of the experiment. […]
This is part of a sample that, as a whole, favours compounds with a hit. Of some 83,000 tested, about 20% had one in any assay.
Response field label takes yes when growth is strictly below 20% and no in all other cases.

Here are 5 compounds together with their reported answers.
compound=CCCCCCCCCCCC[n+]1ccc(CCCCCCCCC)cc1 classification=yes
compound=CN(C)c1ccc2cc3c(cc2c1)Oc1ccccc1N3.[Cl][Zn][Cl] classification=yes
compound=CCOC(=O)/C(=C\c1ccc2ccccc2c1)P(=O)(OCC)OCC classification=no
compound=S=C1SCN(Cc2cccs2)CN1Cc1cccs1 classification=no
compound=c1ccc(-c2cc3cc4ccccc4cn3c2)cc1 classification=no

Attention now turns to another entry.
Input line: Given OC(c1cc(C23CC4CC(CC(C4)C2)C3)nc2c(Cl)cc(Cl)cc12)C1CCCCN1 (stereo unspecified) , is recorded growth strictly lower than 20%?
Output line: yes

----------
system: PC-3 prostate; experiment: NCI-60 one-dose screen, 48 h (100 = growth as untreated, 0 = no growth, -100 = all killed); conditions: 10 µM unless noted
About 83,000 compounds went through this panel and 20% of them were active in at least one assay; those are over-represented in the sample as a whole.
growth overview
State just the number; it will be interpreted in %.

Consider the following illustrative entries.
compound=O=C(Cc1nc2cc(Cl)c(Cl)cc2nc1CC(=O)c1ccccc1)c1ccccc1 unit_abbrev=% result_number=59.4
compound=Oc1ccc(Cl)cc1Cc1cc(Cl)ccc1O unit_abbrev=% result_number=23.9
compound=CCCCCCCCCCCCNCCCc1ccccc1 unit_abbrev=% result_number=78.9

Next up:
Value of measured growth for the entry CN1CCC(c2ccccc2)(c2ccccc2)C(=O)C1 : 85.7

----------
tested on: OVCAR-8 ovarian; assay: NCI-60 one-dose screen, 48 h (100 = growth as untreated, 0 = no growth, -100 = all killed); details: 10 µM unless noted
About 83,000 compounds went through this panel and 20% of them were active in at least one assay; those are over-represented in the sample as a whole. Activity calls are given as the source filed them. The calls were made as follows: active = growth percent below 10; inactive = the rest.
endpoint-label: growth

Worked examples, 6 compounds total:
compound=COc1ccc(NC(=O)/C(=C/N2C(=O)/C(=C/c3ccc(OC)c(OC)c3)NC2=S)C(C)=O)cc1 result="80.8% (inactive)"
compound=S=c1[nH]c2cc(Cl)ccc2s1 result="103% (inactive)"
compound=O=C(Cc1nc2cc(Cl)c(Cl)cc2nc1CC(=O)c1cccnc1)c1cccnc1 result="77.6% (inactive)"
compound=Clc1ccc(-n2ncc3c(NCCCN4CCOCC4)ncnc32)cc1 result="100% (inactive)"
compound=O=Nc1ccc2ccccc2c1O result="6.45% (active)"
compound=CCCCCCCCc1cc(Cl)c(O)c(Cl)c1 result="103% (inactive)"

Quick note, growth for O=C1C=CC(=O)N1c1cccc2c1CCCC2 landed at 110% (inactive)

Per the records, this compound ( OCCOSCCO ) has growth equal to 106% (inactive)

Memo: O=C(Nc1ccc(Cl)c(Cl)c1)Nc1ccccc1O , reported growth: 67.1% (inactive)

growth in this record for Nc1ccc(C(=O)/C=C/c2ccccc2)cc1 : 102% (inactive)

Lab note: measured growth of Oc1c(Cl)cc(Cl)cc1C(c1cc(Cl)cc(Cl)c1O)C(Cl)(Cl)Cl was -0.45% (active)

----------
test system: OVCAR-3 ovarian; experiment: NCI-60 one-dose screen, 48 h (100 = growth as untreated, 0 = no growth, -100 = all killed); details: 10 µM unless noted
About 83,000 compounds went through this panel and 20% of them were active in at least one assay; those are over-represented in the sample as a whole.
endpoint-label: growth (%)
Your answer should be a plain number; it is taken to be in %.

Worked examples follow.
chemical_smiles=CCSc1nc2ccccc2o1 system_under_test="OVCAR-3 ovarian" result_number=111
chemical_smiles=CC1(C)N=c2cc3c(cc2N1c1ccc(Cl)cc1)=Nc1ccccc1N3c1ccc(Cl)cc1 system_under_test="OVCAR-3 ovarian" result_number=35.9
chemical_smiles=Cc1ccc(N2C(=O)C=CC2=O)cc1 system_under_test="OVCAR-3 ovarian" result_number=118
chemical_smiles=COC(=O)Nc1nc2ccc(C3(c4ccc(F)cc4)OCCO3)cc2[nH]1 system_under_test="OVCAR-3 ovarian" result_number=4.74
chemical_smiles=CCCN(CCC)C(=O)c1ccc(C)cc1 system_under_test="OVCAR-3 ovarian" result_number=109

# value of growth, OVCAR-3 ovarian, item O=[n+]1c2ccccc2n([O-])c2cc(Cl)ccc21 = 44.6

The molecule NC(=S)N/N=C\c1nccc2c(N)cccc12 , tested on OVCAR-3 ovarian, showed growth of 42.6

Per the reported OVCAR-3 ovarian data, Nc1ccc(-c2ccc(N)c(S(=O)(=O)O)c2)cc1S(=O)(=O)O has growth of 108

Measured on OVCAR-3 ovarian, COc1cc(-c2ccc(-[n+]3nc(-c4ccc([N+](=O)[O-])cc4)nn3-c3ccc([N+](=O)[O-])cc3)c(OC)c2)ccc1-[n+]1nc(-c2ccc([N+](=O)[O-])cc2)nn1-c1ccc([N+](=O)[O-])cc1 has a documented growth of 32

OVCAR-3 ovarian growth of Cc1cc(Br)c2nsnc2c1[N+](=O)[O-] is 57

Values compiled from PubChem BioAssay (NCI).
